# systemName: Ube1 (Homo sapiens)
# Sequence (P22314 1-1058): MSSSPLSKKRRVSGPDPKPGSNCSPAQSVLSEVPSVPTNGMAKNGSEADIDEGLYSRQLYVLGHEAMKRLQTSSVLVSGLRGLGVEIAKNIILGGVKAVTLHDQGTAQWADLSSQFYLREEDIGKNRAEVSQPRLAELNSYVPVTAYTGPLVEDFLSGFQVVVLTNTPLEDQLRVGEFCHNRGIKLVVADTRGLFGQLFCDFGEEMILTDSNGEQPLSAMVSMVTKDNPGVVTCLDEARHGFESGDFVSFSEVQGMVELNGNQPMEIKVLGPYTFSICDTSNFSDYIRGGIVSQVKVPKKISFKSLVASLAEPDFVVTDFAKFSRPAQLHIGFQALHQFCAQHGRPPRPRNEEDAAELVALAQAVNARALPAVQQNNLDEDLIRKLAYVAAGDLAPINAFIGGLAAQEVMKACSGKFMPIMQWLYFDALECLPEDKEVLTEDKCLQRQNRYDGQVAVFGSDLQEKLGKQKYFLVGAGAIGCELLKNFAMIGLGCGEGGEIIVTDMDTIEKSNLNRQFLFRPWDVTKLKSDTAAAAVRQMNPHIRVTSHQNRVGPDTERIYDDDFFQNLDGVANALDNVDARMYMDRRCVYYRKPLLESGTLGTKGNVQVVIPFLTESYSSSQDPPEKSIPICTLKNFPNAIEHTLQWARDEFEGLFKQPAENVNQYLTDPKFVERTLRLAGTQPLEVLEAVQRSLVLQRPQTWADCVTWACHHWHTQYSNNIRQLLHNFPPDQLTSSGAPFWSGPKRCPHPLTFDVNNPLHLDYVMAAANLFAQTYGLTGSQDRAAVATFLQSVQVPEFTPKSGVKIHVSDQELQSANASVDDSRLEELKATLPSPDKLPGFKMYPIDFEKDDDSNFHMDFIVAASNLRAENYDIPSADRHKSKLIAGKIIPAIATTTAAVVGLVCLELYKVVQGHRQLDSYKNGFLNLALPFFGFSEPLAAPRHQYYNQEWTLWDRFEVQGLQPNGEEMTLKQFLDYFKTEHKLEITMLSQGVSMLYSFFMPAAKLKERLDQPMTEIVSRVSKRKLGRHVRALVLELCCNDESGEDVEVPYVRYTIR
# protocol: Competitive inhibition of UB transfer to Ube1
# Format: biochemical
pIC50: −log10 of the molar value. Ends that are not written are not given here.

# substance, systemName, pIC50
rows = [
    ("VYRFYGG [P4]", "Ube1 (Homo sapiens)", 3.66),
    ("VQRYWGG [P3]", "Ube1 (Homo sapiens)", 3.76),
    ("VWRFHGG [P2]", "Ube1 (Homo sapiens)", 3.58),
]
